Values compiled from paper PMC4868058.

biological target: Dop1R2 (Drosophila melanogaster, UniProt Q24563); construct: receptor cDNA in pcDNA1.1, transiently expressed in HEK293 with CRE-luciferase reporter; assay: CRE-luciferase reporter assay in transfected HEK293 cells; format: cell-based
Where a name gives a salt, the structure may show the parent alone.
Quantity name: IC50 (nM)
Give a bare numeral; the unit nM is implied.

Input line: Dop1R2 (Drosophila melanogaster, UniProt Q24563) / IC50 / OCCN1CCN(CCC=C2c3ccccc3Sc3ccc(C(F)(F)F)cc32)CC1 [flupenthixol dihydrochloride] : value?
Output line: 260

###

Target: Dop1R2 (Drosophila melanogaster, UniProt Q24563)
Construct: receptor cDNA in pcDNA1.1, transiently expressed in HEK293 with CRE-luciferase reporter
Sequence (Q24563 1-539): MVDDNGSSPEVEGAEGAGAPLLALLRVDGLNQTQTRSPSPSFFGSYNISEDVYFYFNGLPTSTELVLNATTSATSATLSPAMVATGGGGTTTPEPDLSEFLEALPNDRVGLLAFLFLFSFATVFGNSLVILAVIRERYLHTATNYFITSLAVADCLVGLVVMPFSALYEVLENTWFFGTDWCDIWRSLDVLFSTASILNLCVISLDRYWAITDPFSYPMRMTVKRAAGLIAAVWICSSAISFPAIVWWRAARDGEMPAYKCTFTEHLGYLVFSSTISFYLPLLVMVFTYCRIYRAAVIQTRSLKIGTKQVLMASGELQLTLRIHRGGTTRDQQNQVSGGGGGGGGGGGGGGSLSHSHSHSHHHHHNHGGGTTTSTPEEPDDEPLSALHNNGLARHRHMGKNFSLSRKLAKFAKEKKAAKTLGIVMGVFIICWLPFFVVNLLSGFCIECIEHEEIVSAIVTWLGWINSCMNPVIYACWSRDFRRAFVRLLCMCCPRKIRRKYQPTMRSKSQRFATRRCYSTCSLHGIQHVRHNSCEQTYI
Experiment: CRE-luciferase reporter assay in transfected HEK293 cells
Format: cell-based
Where a name gives a salt, the structure may show the parent alone.
Quantity name: EC50
Just so you know, I need the unit written after the number.

Input line: Requested read-out: EC50. Entry: NCCc1ccc(O)c(O)c1 [dopamine hydrochloride]
Output line: 270 nM
